What follows is a record of GI50 for MDA-MB-435.

# GI50 of CCOC(=O)c1nnn(-c2no[n+]([O-])c2-c2ccc(OC)cc2)c1COc1cccc2cccnc12 = 1160 nM

# GI50 (molecule: CC(C)C[C@H](NC(=O)Cn1ccc(Nc2ccccc2)cc1=O)B(O)O ) is 593 nM

Note to self: GI50 recorded for OCc1ccc(N(Cc2ccc(F)cc2)CC2CC2)cc1Cl was 15700 nM

Lab note: COc1ccc2nc3ccccc3c(NCc3ccc(Cl)cc3)c2c1 gave GI50 of 1500 nM

Sample Nn1c2c(c3ccccc3c1=O)C(=O)c1ccccc1-2 ; GI50 observed: > 50000 nM

Per the record, Cc1cc(C2CC(O)C(CO)O2)c(Cl)cc1Cl (stereo unspecified) has GI50 of > 100000 nM

* * *

tested on: RXF 393 renal; assay: NCI tumour cell line growth inhibition, 48 h
experimentalReadout: TGI

GET /value?item= COc1cc(-c2csc(NC(=O)Nc3ccc(Cl)c(C(F)(F)F)c3)n2)cc(OC)c1OC &field=TGI returns 3.9 µM

Sample Cc1cc(C2CC(O)C(CO)O2)c(Cl)cc1Cl (stereo unspecified) ; TGI observed: > 100 µM

// COC(=O)C1=C(C)C(=O)[C@H]2C(C(=O)OC)CCCC[C@@H]12 (stereo partly specified) : TGI value = > 100 µM

Consider CCOC(=O)c1cn2c(n1)sc1cc(C)c(C)cc12 . Its measured TGI is 51.2 µM

Quick note, TGI for CC(C)OC(=O)c1cc(NS(=O)(=O)c2ccc3ccccc3c2)cc(C(=O)OC(C)C)c1 landed at > 100 µM

The molecule identified as Cc1ccc(NC2=N[C@]34CC(=O)CC[C@]3(C)[C@H]3CC[C@]5(C)C(=O)CC[C@H]5[C@@H]3C[C@@H]4S2)c(C)c1 registered its TGI at 3.23 µM

Noted for O=CC1=C(C(=O)OC(c2ccccc2)c2ccccc2)N2C(=O)[C@@H](NC(=O)Cc3cccs3)[C@H]2SC1 : its TGI reads > 100 µM

GET /value?item= Nc1nc(N)c2c(Cl)c(CNc3ccc(C(=O)NC(CC(=O)O)C(=O)O)cc3)ccc2n1 (stereo unspecified) &field=TGI returns > 100 µM

Sure, the documented TGI for c1ccc2c(CC3NCCN3)cccc2c1 is > 100 µM

Looking up CC(=O)OC1CC2C(C)(C)C(=O)C=C[C@]2(C)C2CC[C@]3(C)C(OCC(=O)[C@H]3c3ccoc3)[C@]12C (stereo partly specified) , I see its TGI listed as 18.8 µM

Just so you know, measured TGI for [N-]=[N+]=NC1C2CC3C4CC5CC3[C@H](C2)C(C5)C41 (stereo partly specified) came out at > 100 µM

get_value(item= O=C(CCc1ccc(O)c(O)c1)NCCc1cc(O)cc(OCc2ccccc2)c1 , readout=TGI) returns > 100 µM

Entry COC(=O)C1=CN(CC2=CC(=O)C(C)=CC2=O)C=C(C(=O)OC)C1c1cc(OC)ccc1OC ; TGI = 11.6 µM

Please fill in: TGI reported for COc1ccc2nc3cccc([N+](=O)[O-])c3c(NCCNCCO)c2c1 = 0.0474 µM

Reported TGI of [N-]=[N+]=Nc1c(N2CCOCC2)c(Cl)nc2ccccc12 : > 100 µM

In plain terms, COC(=O)C1=C(C(=O)OC)C2(CCCCCC2=O)OC1=O (stereo unspecified) has a documented TGI of > 100 µM

Kindly note the recorded TGI for COC(=O)C1CCC2(C)[C@H](CCC3O[C@]32C)[C@@]1(C)CC(=O)c1ccoc1 (stereo partly specified) , which is > 100 µM

Record CN1CCN(C(=S)N(C(=O)c2ccco2)C2CCCCC2)CC1 . Reported TGI: > 100 µM

Data point: Cc1cc(O)c(/C=N/c2nc(-c3ccc([N+](=O)[O-])cc3)cs2)c(=O)o1 ; TGI = > 100 µM

Please fill in: TGI reported for N#CC1=C(N)Oc2c(ccc3ccccc23)C1c1cccs1 (stereo unspecified) = 21.8 µM

Lookup result for CN(C(=O)CCC(=O)O)c1ccccc1C(=O)O ; measured TGI: > 100 µM
